Each recorded value in this set is attributed to patent US20030176334A1.

Measured pIC50, listed per entry.
# tested.on: T1, integrin αIIbβ3, purified and immobilized (UniProt P08514 32-1039; P05106 27-788)
# T1 construct: Purified integrin coated at 50 ng per well; also called α11bβ3
# assay: competition, fibrinogen (FG) binding to immobilized αIIbβ3; individual assay
pIC50: −log10 of the molar value.
measured.quantity: pIC50

TDVNGDGRHDL (Linear synthetic peptide; also called αIIb-derived amino acid residues 296-306) [peptide 62502, TDVNGDGRHDL] : 4.05
YTAECKPQVTRGDVF (Linear synthetic peptide; also called VN-derived amino acid residues 35-49) [peptide 62880, YTAECKPQVTRGDVF] : 5.38
